tested on: FRK; conditions: concentration: 1 μM, replicates: in singlicate; n = 1;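 further: KINOMEscan kinase panel screen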
value.kind: %Inh

{"molecule": "COc1cccc(-c2ccc3c(NC(=O)C4CC4)n[nH]c3n2)c1 [SB-710903]", "experimental.system": "FRK", "result": "0%"}
{"molecule": "O=C(Nc1cccc(-c2nn3ccccc3c2-c2ccnc(Nc3cccc(F)c3)n2)c1)c1c(F)ccc(F)c1Cl [GSK357952]", "experimental.system": "FRK", "result": "76%"}
{"molecule": "Cc1ccc(F)c(C(=O)Nc2cccc(-c3nn4ccccc4c3-c3ccnc(Nc4cccc(F)c4)n3)c2)c1F [GSK361061]", "experimental.system": "FRK", "result": "86%"}
{"molecule": "Cl.Cl.NCC(NC(=O)c1cc(-c2ccccc2)c(-c2ccnc3[nH]ccc23)s1)c1ccccc1 (centres unmarked) [GSK1321561]", "experimental.system": "FRK", "result": "72%"}
{"molecule": "COc1cc(Nc2nccc(N3CCC(NC(=O)Nc4cccc(C(C)=O)c4)C3)n2)cc(OC)c1OC (centres unmarked) [GSK1379753]", "experimental.system": "FRK", "result": "0%"}
{"molecule": "CC(=O)Nc1nc2cnc(Nc3cc(NC(=O)c4cccc(C5(C#N)CC5)c4Cl)ccc3C)nc2s1", "experimental.system": "FRK", "result": "93.2%"}
{"molecule": "COCCOCCOc1cc2ncc3c4ccc(C#N)cc4[nH]c3c2cc1OC", "experimental.system": "FRK", "result": "16%"}
{"molecule": "COc1cc(Nc2ncc3c(C)nc(-c4cc5ccccc5[nH]4)n3n2)cc(OC)c1OC [GW869516]", "experimental.system": "FRK", "result": "39%"}
{"molecule": "CCn1c(-c2nonc2N)nc2c(C#CC(C)(C)O)ncc(OCCCCN)c21.O=C(O)C(F)(F)F.O=C(O)C(F)(F)F [GSK507274]", "experimental.system": "FRK", "result": "26%"}
{"molecule": "O=C(NC1CCN(c2ccnc(Nc3ccc(F)cc3)n2)C1)c1cc2ccccc2s1 (centres unmarked) [GSK1379716]", "experimental.system": "FRK", "result": "18%"}
{"molecule": "Fc1ccc(-c2ncn(C3CCNCC3)c2-c2ccnc(Oc3ccc(-c4ccccc4)cc3)n2)cc1 [SB-245391]", "experimental.system": "FRK", "result": "31%"}
{"molecule": "COC(=O)Nc1nc2cc(Oc3ccc(NC(=O)Nc4cc(C(F)(F)F)ccc4F)cn3)ccc2[nH]1.Cl.Cl [GW681170]", "experimental.system": "FRK", "result": "55%"}
{"molecule": "Cc1occc1-c1ncc(OC[C@@H](N)Cc2c[nH]c3ccccc23)cc1-c1ccc2[nH]nc(C)c2c1.O=C(O)C(F)(F)F [GSK682037]", "experimental.system": "FRK", "result": "57%"}
{"molecule": "Cl.Cl.NCC(C(=O)Nc1cc(Br)c(-c2ccnc3[nH]ccc23)s1)c1ccccc1 (centres unmarked) [GSK1269851]", "experimental.system": "FRK", "result": "12%"}
{"molecule": "COc1cccc(C2=C(Nc3ccc(Cl)c(C(=O)O)c3)C(=O)NC2=O)c1 [SB-390769]", "experimental.system": "FRK", "result": "32%"}
{"molecule": "CCS(=O)(=O)c1ccc(OC)c(Nc2nccc(-c3c(-c4cccc(NC(=O)c5c(F)cccc5F)c4)nn4ncccc34)n2)c1 [GSK326180]", "experimental.system": "FRK", "result": "61%"}
{"molecule": "O=C(O)C(F)(F)F.O=C(O)C(F)(F)F.O=c1[nH]ccc2nc(N[C@@H]3CCCNC3)nc(Nc3ccc(S(=O)(=O)N4CCOCC4)cc3)c12 [GSK2177277]", "experimental.system": "FRK", "result": "39%"}
{"molecule": "Cl.c1ccc(-c2ccc3c(Nc4ccc5[nH]ncc5c4)ccnc3c2)nc1 [GW440137]", "experimental.system": "FRK", "result": "0%"}
{"molecule": "COc1ccc(Nc2nccc(NCCNC(=O)c3cc4ccccc4s3)n2)cc1 [GSK1379896]", "experimental.system": "FRK", "result": "0%"}
{"molecule": "COc1cc2c(cc1OCCN1CCNCC1)ncc1c3ccc(C#N)cc3[nH]c21", "experimental.system": "FRK", "result": "0%"}
{"molecule": "O=c1[nH]cc(-c2ccc(N3CCOCC3)cc2)c2sc(-c3cn[nH]c3)cc12 [GSK2276055]", "experimental.system": "FRK", "result": "0%"}
{"molecule": "Oc1cc(Nc2ccnc3cc(I)ccc23)ccc1F [GW552771]", "experimental.system": "FRK", "result": "72%"}
{"molecule": "CNC(=O)c1ccccc1Nc1nc(Nc2ccc(N3CCOCC3)cc2)ncc1Cl.Cl [GSK1576028]", "experimental.system": "FRK", "result": "86%"}
{"molecule": "O=C(Nc1cccc(Oc2ccc3nc(NC(=O)C4CC4)cn3n2)c1)c1ccccc1C(F)(F)F", "experimental.system": "FRK", "result": "30%"}
{"molecule": "CN(c1ccc(NC(=O)Nc2cc(C(F)(F)F)ccc2F)cc1)c1ccnc(Nc2ccc(S(N)(=O)=O)cc2)n1 [GW809893]", "experimental.system": "FRK", "result": "99%"}
{"molecule": "c1ccc(-c2cnc3nccnn23)cc1 [AH20685]", "experimental.system": "FRK", "result": "18%"}
{"molecule": "CCCCc1nn2ncccc2c1-c1ccnc(Nc2ccc(N3CCN(C)CC3)cc2)n1 [GW684941]", "experimental.system": "FRK", "result": "95%"}
{"molecule": "Cl.c1ccc(-c2ccc3c(Nc4ccc5[nH]ccc5c4)ccnc3c2)nc1 [GW440138]", "experimental.system": "FRK", "result": "17%"}
{"molecule": "Nc1ncc(-c2ccc3nccc(-c4ccncc4)c3c2)cc1S(=O)(=O)N1CCOCC1 [GSK1627798]", "experimental.system": "FRK", "result": "8%"}
{"molecule": "Cc1ccc(C(=O)Nc2ccc(Nc3ccnc4cc(-c5nccs5)ccc34)cc2O)cc1.Cl [GW494702]", "experimental.system": "FRK", "result": "67%"}
{"molecule": "CN1CCN(CCCNc2nccc(-c3c(-c4ccc(F)cc4)nn4cc(C(F)(F)F)ccc34)n2)CC1 [GW621581]", "experimental.system": "FRK", "result": "5%"}
{"molecule": "Cn1cc(-c2[nH]c3cc(NC(=O)[C@H](N)C4CCCCC4)cc4c3c2C=NNC4=O)cn1", "experimental.system": "FRK", "result": "0%"}

---

test system: RSK1(Kin.Dom.1-N-terminal); construct: gene RPS6KA1; conditions: concentration: 1 μM, replicates: in singlicate; n = 1
Here the recorded %Inh is given for each entry.

{"compound.smiles": "Cc1ccc(C(=O)N2CC[C@@H](O)C2)cc1-n1c(C)cc(OCc2ccc(F)cc2F)c(Br)c1=O", "experimental.system": "RSK1(Kin.Dom.1-N-terminal)", "%Inh [%]": 0}
{"compound.smiles": "CCCCc1nn2ncccc2c1-c1ccnc(Nc2ccc(N3CCN(C)CC3)cc2)n1", "experimental.system": "RSK1(Kin.Dom.1-N-terminal)", "%Inh [%]": 0}
{"compound.smiles": "Oc1cc(Nc2ccnc3cc(I)ccc23)ccc1F", "experimental.system": "RSK1(Kin.Dom.1-N-terminal)", "%Inh [%]": 0}
{"compound.smiles": "CN(C)Cc1ccc(-c2ccc3c(Nc4ccc(Oc5ccccn5)cc4)ccnc3c2)o1", "experimental.system": "RSK1(Kin.Dom.1-N-terminal)", "%Inh [%]": 0}
{"compound.smiles": "Cc1ccc(F)c(C(=O)Nc2cccc(-c3nn4ccccc4c3-c3ccnc(Nc4cccc(F)c4)n3)c2)c1F", "experimental.system": "RSK1(Kin.Dom.1-N-terminal)", "%Inh [%]": 65}
{"compound.smiles": "Nc1ncnc2c1nc(-c1ccccc1)n2-c1ccccc1", "experimental.system": "RSK1(Kin.Dom.1-N-terminal)", "%Inh [%]": 19}
{"compound.smiles": "COc1cccc(C(=O)Nc2cccc(Oc3ccc4nc(NC(=O)C5CC5)cn4n3)c2)c1", "experimental.system": "RSK1(Kin.Dom.1-N-terminal)", "%Inh [%]": 0}
{"compound.smiles": "O=C(Nc1n[nH]c2nc(-c3ccc(O)cc3)ccc12)C1CC1", "experimental.system": "RSK1(Kin.Dom.1-N-terminal)", "%Inh [%]": 14}
{"compound.smiles": "CN1CCN(CCCNc2nccc(-c3c(-c4ccc(F)cc4)nn4cc(C(F)(F)F)ccc34)n2)CC1", "experimental.system": "RSK1(Kin.Dom.1-N-terminal)", "%Inh [%]": 0}
{"compound.smiles": "Clc1ccc(-c2nn3ncccc3c2-c2ccnc(Nc3ccc4c(c3)OCCO4)n2)cc1", "experimental.system": "RSK1(Kin.Dom.1-N-terminal)", "%Inh [%]": 18}
{"compound.smiles": "COC(=O)Nc1nc2cc(Oc3ccc(NC(=O)Nc4cc(C(F)(F)F)ccc4F)cn3)ccc2[nH]1.Cl.Cl", "experimental.system": "RSK1(Kin.Dom.1-N-terminal)", "%Inh [%]": 0}
{"compound.smiles": "FC(F)(F)c1ccc(/C=C/c2cncnc2Nc2ccc3[nH]c(Cc4ccccc4)nc3c2)cc1", "experimental.system": "RSK1(Kin.Dom.1-N-terminal)", "%Inh [%]": 3}
{"compound.smiles": "CC(C)c1nc(-c2cccc(NS(=O)(=O)c3c(F)cccc3F)c2F)c(-c2ccnc(Nc3ccc(N4CCOCC4)nc3)n2)s1", "experimental.system": "RSK1(Kin.Dom.1-N-terminal)", "%Inh [%]": 100}
{"compound.smiles": "Nc1n[nH]c2cnc(-c3ccccc3)cc12", "experimental.system": "RSK1(Kin.Dom.1-N-terminal)", "%Inh [%]": 23}
{"compound.smiles": "COC(=O)Nc1nc2ccc(Oc3ccc(NC(=O)Nc4cc(C(F)(F)F)ccc4F)cc3)cc2n1C.Cl", "experimental.system": "RSK1(Kin.Dom.1-N-terminal)", "%Inh [%]": 0}
{"compound.smiles": "COc1cc(Nc2nccc(-c3c(-c4cccc(NC(=O)c5c(F)cccc5F)c4)nn4ncccc34)n2)cc(OC)c1OC", "experimental.system": "RSK1(Kin.Dom.1-N-terminal)", "%Inh [%]": 97.3}
{"compound.smiles": "Cl.NC(=O)c1cccc(Nc2nccc(Nc3ccc(Oc4c(Cl)cccc4Cl)c(Cl)c3)n2)c1", "experimental.system": "RSK1(Kin.Dom.1-N-terminal)", "%Inh [%]": 0}
